tested on: HT29 colon; assay: NCI-60 one-dose screen, 48 h (100 = growth as untreated, 0 = no growth, -100 = all killed); settings: 10 µM unless noted
Compounds without any hit were thinned out: in the full panel of roughly 83,000, 20% have a hit. Calls of active or inactive are those of the source. Rule for the calls: active = growth percent below 10; inactive = the rest.
value.kind: growth

Known results for molecules:
Notebook: CCOC(=O)c1ccc(C(C)(C)C)cc1 , growth read as 109% (inactive)

Notebook: S=C(NCc1ccccc1)N1CCC(CCCC2CCN(C(=S)NCc3ccccc3)CC2)CC1 , growth read as 95.9% (inactive)

Notebook: O=C1C=C(c2ccccc2)C(O)(c2ccccc2)C1 (centres undefined) , growth read as 97.8% (inactive)

Notebook: Clc1ccc(-c2noc(/C=C\c3ccccc3)n2)cc1 , growth read as 102% (inactive)

Notebook: Clc1ccc(C(SCc2ccccc2)SCc2ccccc2)cc1 , growth read as 90.9% (inactive)

Continuing:
Notebook: CCCNS(=O)(=O)c1ccc(Cl)cc1 , growth read as 101% (inactive)

Notebook: Cn1c(=O)[nH]c2ccccc2c1=O , growth read as 98.4% (inactive)

Notebook: Nc1ncnc2c1ncn2C1OC(CO)C2OC21 (centres undefined) , growth read as 101% (inactive)
